System: Staph. epi 222
testDetails: standard in vitro agar dilution assay (MIC)
Type: cell-based
assaySetup: Staph. epi strain 222
observable: MIC (µg/mL)
Answer with a number only, understood to be in µg/mL.

Here are 2 compounds together with their reported answers.
>>> observedvalue("CO/N=C(\\C(=O)NC1C(=O)N2C(C(=O)[O-])=C(C[n+]3ccc4ncn(C)c4c3)CSC12)c1csc(N)n1 (stereo not drawn) [Example 3]")
1
>>> observedvalue("CO/N=C(\\C(=O)NC1C(=O)N2C(C(=O)[O-])=C(C[n+]3ccc4nc(C(C)(C)C)sc4c3)CSC12)c1csc(N)n1 (stereo not drawn) [Example 17]")
1

For the compound CO/N=C(\C(=O)NC1C(=O)N2C(C(=O)[O-])=C(C[n+]3ccc4[nH]c(-c5ccccc5)nc4c3)CSC12)c1csc(N)n1 (stereo not drawn) [Example 9] , what MIC is on record?
2

---

Tested on: H. influ. C.L.
testDetails: standard in vitro agar dilution assay (MIC)
Type: cell-based
assaySetup: H. influ. strain C.L.; read-out: Agar Dilution MIC
Overview of recorded MIC for various compounds
Give just the number in µg/mL; leave the unit off.

>>> observedvalue("CO/N=C(\\C(=O)NC1C(=O)N2C(C(=O)[O-])=C(C[n+]3ccc4[nH]c(C)nc4c3)CSC12)c1csc(N)n1 (stereo not drawn)")
0.015

Find the recorded MIC belonging to CO/N=C(\C(=O)NC1C(=O)N2C(C(=O)[O-])=C(C[n+]3ccc4[nH]cnc4c3)CSC12)c1csc(N)n1 (stereo not drawn) and report it.
0.015

Can you look up the measured MIC of CO/N=C(\C(=O)NC1C(=O)N2C(C(=O)[O-])=C(C[n+]3ccc4sc(C)nc4c3)CSC12)c1csc(N)n1 (stereo not drawn) for me?
0.03

Entry source: patent US4692443A
